target: hCMV UL128 + UL130 + UL131A (co-expressed in HEK293T cells) (human cytomegalovirus, UniProt P16837 28-171; P16772 1-214; F5HET4 19-129); experiment: cell-based or functional assay
Sequence (P16837 28-171 limits assumed, one chain of several): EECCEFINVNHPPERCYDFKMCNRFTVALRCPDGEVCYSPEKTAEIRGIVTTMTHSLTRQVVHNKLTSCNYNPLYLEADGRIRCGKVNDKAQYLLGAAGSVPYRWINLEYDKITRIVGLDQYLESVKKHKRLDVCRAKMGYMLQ
Metric: 50% Neutralization ARPE

>>> reported("8C15 (antibody, V domains shown) VH: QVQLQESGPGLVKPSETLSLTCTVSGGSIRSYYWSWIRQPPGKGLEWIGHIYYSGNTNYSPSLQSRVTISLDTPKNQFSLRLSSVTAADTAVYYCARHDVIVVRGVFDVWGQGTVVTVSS VL: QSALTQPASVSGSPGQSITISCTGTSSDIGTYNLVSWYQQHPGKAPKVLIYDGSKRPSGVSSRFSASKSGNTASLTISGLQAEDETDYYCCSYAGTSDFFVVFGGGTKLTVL")
"< 0.001 µg/mL"

Q: Reported 50% Neutralization ARPE, binder 9I6 (antibody, V domains shown) VH: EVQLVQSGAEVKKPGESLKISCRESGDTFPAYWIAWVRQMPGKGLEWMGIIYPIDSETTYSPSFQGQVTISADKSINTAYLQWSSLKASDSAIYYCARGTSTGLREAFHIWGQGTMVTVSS VL: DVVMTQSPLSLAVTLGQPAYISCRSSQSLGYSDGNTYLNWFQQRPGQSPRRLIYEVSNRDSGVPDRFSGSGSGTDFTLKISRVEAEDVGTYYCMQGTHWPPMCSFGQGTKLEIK : ____
Result: < 0.001 µg/mL
